- tested-target: DGAT2
- recorded-conditions: ASO, HepG2, 2.5 µM
After the bases stand the sugars from the 5' end (letter, count) and the backbone: PS all phosphorothioate, else s phosphorothioate and o phosphodiester by linkage. Methylation of C is not given here. e = 2'-O-(2-methoxyethyl) (MOE); d = 2'-deoxy (DNA)
measurement-name: target mRNA inhibition
I'd appreciate it if you wrote the number followed by its unit.

Here are 5 sequences together with their reported answers.
1) TGTGCTCTGTGGGCTCCTCC (sugars e5 d10 e5, PS) | 66%
2) CCAGTTTCGGACCCACTGTG (sugars e5 d10 e5, PS) | 28%
3) CTGTGAGGCCAAGGACAGAG (sugars e5 d10 e5, PS) | 50%
4) AACCACAGCGATAATCACAC (sugars e5 d10 e5, PS) | 66%
5) GCTGAGTCTGTGCTGCA (sugars e3 d10 e4, PS) | 56%

Please look at the items below and tell me target mRNA inhibition for each one, in order.
1. GGAGCTCAGAGACTCAGCCG (sugars e3 d14 e3, PS)
2. AGGACCCCGGAGTAGGCGGC (sugars e5 d10 e5, PS)
3. CAGGTTCATCTGCCTTGACG (sugars e5 d10 e5, PS)
4. GCAGCAGGTACTCATGTTTG (sugars e5 d10 e5, PS)

Reply:
["17%", "60%", "69%", "54%"]

Please look at the items below and tell me target mRNA inhibition for each one, in order.
1. GCCAAGGACAGAGGTTCAAC (sugars e5 d10 e5, PS)
2. AGAGCACAGCGATGAGCCAG (sugars e5 d10 e5, PS)
3. GTTGGGCAGTCACCATTTGC (sugars e5 d10 e5, PS)
4. AGGACACCTGGAGCTGCGGC (sugars e5 d10 e5, PS)

Reply:
1: 61%; 2: 52%; 3: 21%; 4: 42%

Please look at the items below and tell me target mRNA inhibition for each one, in order.
1. GGACCCCGGAGTAGGCGGCT (sugars e5 d10 e5, PS)
2. TGGGAACAGCAGCATCAGCA (sugars e5 d10 e5, PS)
3. CCCAGATTTAGCCACCACCT (sugars e5 d10 e5, PS)

Reply:
1. 30%
2. 65%
3. 56%

Please look at the items below and tell me target mRNA inhibition for each one, in order.
1. GGCTCAGTTCACCTCCAGGA (sugars e5 d10 e5, PS)
2. TCTCACATGCCTGAGGGCAG (sugars e5 d10 e5, PS)
3. GCCCAGCACCAAGGAATGGT (sugars e5 d10 e5, PS)

Reply:
56%
70%
0%

Data origin, for the record: the OligoGym collection
